system: Rifampicin resistant strain derived from H37Rv Mtb, ropB mutant (S522L); format: cell-based, Mycobacterium tuberculosis
Strictly below 0.3 µM in MIC RIF res1: satisfied. Otherwise: not satisfied.

>  <Molecule>
CCc1nc2ccc(Cl)cn2c1C(=O)NCc1ccc(S(F)(F)(F)(F)F)cc1

>  <Class label>
satisfied

$$$$
>  <Molecule>
CCc1nc2ccc(Cl)cn2c1C(=O)NCc1cccc(S(F)(F)(F)(F)F)c1

>  <Class label>
not satisfied

$$$$
>  <Molecule>
Cc1ccn2c(C(=O)NCc3cccc(S(F)(F)(F)(F)F)c3)c(C)nc2c1

>  <Class label>
not satisfied

$$$$
>  <Molecule>
CO[C@H]1/C=C/O[C@@]2(C)Oc3c(C)c(O)c4c(O)c(c(/C=N/N5CCN(C)CC5)c(O)c4c3C2=O)NC(=O)/C(C)=C\C=C\[C@H](C)[C@H](O)[C@@H](C)[C@@H](O)[C@@H](C)[C@H](OC(C)=O)[C@@H]1C [RIF, Rifampicin, reference compound]

>  <Class label>
not satisfied

$$$$
>  <Molecule>
Cc1ccn2c(C(=O)NCc3ccc(S(F)(F)(F)(F)F)cc3)c(C)nc2c1

>  <Class label>
satisfied

$$$$
>  <Molecule>
Cc1ccc2nc(C)c(C(=O)NCc3ccc(S(F)(F)(F)(F)F)cc3)n2c1

>  <Class label>
satisfied

$$$$
>  <Molecule>
Cc1cn2c(C(=O)NCc3ccc(S(F)(F)(F)(F)F)cc3)c(C)nc2s1

>  <Class label>
satisfied

$$$$
>  <Molecule>
NNC(=O)c1ccncc1 [INH, Isoniazid, reference compound]

>  <Class label>
satisfied

$$$$
>  <Molecule>
Cc1ccc2nc(C)c(C(=O)NCc3cccc(S(F)(F)(F)(F)F)c3)n2c1

>  <Class label>
not satisfied

$$$$
